Cited source for all entries: the supplement of paper PMC10307832

# Test system: LCLC-103H
# PROTOCOL DESCRIPTION: relative viability (nuclei count vs DMSO), 5 days (fraction); higher = more cells survive
# REPORTED CONDITIONS: first compound 0.6325 µM
ASSAY ENDPOINT: relative viability
Simply state the number, no unit and no words.

Give relative viability only, for CN1CCN(CCOc2cc(OC3CCOCC3)c3c(Nc4c(Cl)ccc5c4OCO5)ncnc3c2)CC1 [Saracatinib] + O=C(CCCCCCC(=O)Nc1ccccc1)NO [Vorinostat] (partner 1 µM) , using LCLC-103H data.
0.846

Tell me relative viability of CN1CCN(CCOc2cc(OC3CCOCC3)c3c(Nc4c(Cl)ccc5c4OCO5)ncnc3c2)CC1 [Saracatinib] + Cc1nc(NC(=O)N2CCC[C@H]2C(N)=O)sc1-c1ccnc(C(C)(C)C(F)(F)F)c1 [Alpelisib] (partner 2 µM) when tested on LCLC-103H.
0.899

Give LCLC-103H relative viability for the following molecule: Cc1csc(=NC2CCCCC2)n1/N=C/c1ccc(O)c(O)c1O [MIM1] + COc1cc2c(Oc3ccc(NC(=O)C4(C(=O)Nc5ccc(F)cc5)CC4)cc3F)ccnc2cc1OCCCN1CCOCC1 [Foretinib] (partner 0.25 µM)
0.833

Given Cc1csc(=NC2CCCCC2)n1/N=C/c1ccc(O)c(O)c1O [MIM1] + Cc1nc(NC(=O)N2CCC[C@H]2C(N)=O)sc1-c1ccnc(C(C)(C)C(F)(F)F)c1 [Alpelisib] (partner 2 µM) , report its relative viability on LCLC-103H.
1.08

---

Below, each entry is listed with its recorded relative viability.
# System: NCI-H2126
# PROTOCOL DESCRIPTION: relative viability (nuclei count vs DMSO), 5 days (fraction); higher = more cells survive
# REPORTED CONDITIONS: first compound 0.02 µM
Note: the reply should be a number with no unit written.

Would you please look over these solved cases?
{"MOLECULE": "CCNC(=O)c1noc(-c2cc(C(C)C)c(O)cc2O)c1-c1ccc(CN2CCOCC2)cc1 [Luminespib] + Cc1nc(Nc2ncc(C(=O)Nc3c(C)cccc3Cl)s2)cc(N2CCN(CCO)CC2)n1 [Dasatinib] (partner 0.075 µM)", "TARGET UNDER TEST": "NCI-H2126", "relative viability": 0.399}
{"MOLECULE": "CN1CCN(CCOc2cc(OC3CCOCC3)c3c(Nc4c(Cl)ccc5c4OCO5)ncnc3c2)CC1 [Saracatinib] + COc1cccc2cc(-c3nc([C@H]4CC[C@H](C(=O)O)CC4)n4ncnc(N)c34)[nH]c12 [OSI-027] (partner 0.5 µM)", "TARGET UNDER TEST": "NCI-H2126", "relative viability": 0.8}
{"MOLECULE": "CN1CCN(CCOc2cc(OC3CCOCC3)c3c(Nc4c(Cl)ccc5c4OCO5)ncnc3c2)CC1 [Saracatinib] + Cc1nc(Nc2ncc(C(=O)Nc3c(C)cccc3Cl)s2)cc(N2CCN(CCO)CC2)n1 [Dasatinib] (partner 0.075 µM)", "TARGET UNDER TEST": "NCI-H2126", "relative viability": 0.569}
{"MOLECULE": "CN1CCN(CCOc2cc(OC3CCOCC3)c3c(Nc4c(Cl)ccc5c4OCO5)ncnc3c2)CC1 [Saracatinib] + NC(=O)Nc1cc(-c2cccc(F)c2)sc1C(=O)N[C@H]1CCCNC1 [AZD7762] (partner 0.2 µM)", "TARGET UNDER TEST": "NCI-H2126", "relative viability": 1}
{"MOLECULE": "CN1CCN(CCOc2cc(OC3CCOCC3)c3c(Nc4c(Cl)ccc5c4OCO5)ncnc3c2)CC1 [Saracatinib] + N=C(N)NC(=N)NCCc1ccccc1 [Phenformin] (partner 250 µM)", "TARGET UNDER TEST": "NCI-H2126", "relative viability": 0.537}

Note: attention shifts to another entry.
Respond only with relative viability recorded for CCNC(=O)c1noc(-c2cc(C(C)C)c(O)cc2O)c1-c1ccc(CN2CCOCC2)cc1 [Luminespib] + CS(=O)(=O)CCNCc1ccc(-c2ccc3ncnc(Nc4ccc(OCc5cccc(F)c5)c(Cl)c4)c3c2)o1 [Lapatinib] (partner 2 µM)
0.582

---

# System: NCI-H2087
# PROTOCOL DESCRIPTION: relative viability (nuclei count vs DMSO), 5 days (fraction); higher = more cells survive
# REPORTED CONDITIONS: first compound 0.006325 µM
ASSAY ENDPOINT: relative viability
Lab note: jot the number down without any unit.

{"COMPOUND": "CCNC(=O)c1noc(-c2cc(C(C)C)c(O)cc2O)c1-c1ccc(CN2CCOCC2)cc1 [Luminespib] + N=C(N)NC(=N)NCCc1ccccc1 [Phenformin] (partner 250 µM)", "ASSAY ENDPOINT": "relative viability", "REPORTED RESULT": 0.362}
{"COMPOUND": "CCNC(=O)c1noc(-c2cc(C(C)C)c(O)cc2O)c1-c1ccc(CN2CCOCC2)cc1 [Luminespib] + CC(=O)c1c(C)c2cnc(Nc3ccc(N4CCNCC4)cn3)nc2n(C2CCCC2)c1=O [Palbociclib] (partner 0.5 µM)", "ASSAY ENDPOINT": "relative viability", "REPORTED RESULT": 0.232}
{"COMPOUND": "CCNC(=O)c1noc(-c2cc(C(C)C)c(O)cc2O)c1-c1ccc(CN2CCOCC2)cc1 [Luminespib] + O=C(c1cc(Cc2n[nH]c(=O)c3ccccc23)ccc1F)N1CCN(C(=O)C2CC2)CC1 [Olaparib] (partner 8 µM)", "ASSAY ENDPOINT": "relative viability", "REPORTED RESULT": 0.518}

In the following, a different compound is considered.
Input CCNC(=O)c1noc(-c2cc(C(C)C)c(O)cc2O)c1-c1ccc(CN2CCOCC2)cc1 [Luminespib] + O=C(CCCCCCC(=O)Nc1ccccc1)NO [Vorinostat] (partner 1 µM) , output reported relative viability.
0.609

---

# Tested on: CAL-12T
# PROTOCOL DESCRIPTION: relative viability (nuclei count vs DMSO), 5 days (fraction); higher = more cells survive
# REPORTED CONDITIONS: first compound 6.325 µM
Quick list: relative viability per entry.
Write no unit; give the number alone.

{"MOLECULE": "Cc1csc(=NC2CCCCC2)n1/N=C/c1ccc(O)c(O)c1O [MIM1] + Cc1nc(Nc2ncc(C(=O)Nc3c(C)cccc3Cl)s2)cc(N2CCN(CCO)CC2)n1 [Dasatinib] (partner 0.075 µM)", "REPORTED RESULT": 0.311}

Specify measured relative viability for Cc1csc(=NC2CCCCC2)n1/N=C/c1ccc(O)c(O)c1O [MIM1] + CC(=O)Nc1cccc(-n2c(=O)n(C3CC3)c(=O)c3c(Nc4ccc(I)cc4F)n(C)c(=O)c(C)c32)c1 [Trametinib] (partner 0.02 µM) .
0.316

---

# System: LCLC-103H
# PROTOCOL DESCRIPTION: relative viability (nuclei count vs DMSO), 5 days (fraction); higher = more cells survive
# REPORTED CONDITIONS: first compound 0.8 µM
Threshold check on relative viability: strictly below 0.7 is True; on or above 0.7 is False.

{"COMPOUND": "Nc1cccc2c1CN(C1CCC(=O)NC1=O)C2=O (stereo not drawn) [Lenalidomide] + C[C@]1(O)C[C@@H](c2nc(-c3ccc4ccc(-c5ccccc5)nc4c3)c3c(N)nccn32)C1 [Linsitinib] (partner 1 µM)", "TARGET UNDER TEST": "LCLC-103H", "QUALITATIVE LABEL": "False"}

Does Nc1cccc2c1CN(C1CCC(=O)NC1=O)C2=O (stereo not drawn) [Lenalidomide] + CS(=O)(=O)N1CCN(Cc2cc3nc(-c4cccc5[nH]ncc45)nc(N4CCOCC4)c3s2)CC1 [Pictilisib] (partner 1 µM) have relative viability strictly under 0.7?
True

Below 0.7 on relative viability? Entry Nc1cccc2c1CN(C1CCC(=O)NC1=O)C2=O (stereo not drawn) [Lenalidomide] + Nc1ncn([C@H]2C[C@H](O)[C@@H](CO)O2)c(=O)n1 [Decitabine] (partner 2 µM)
True

In plain terms, does Nc1cccc2c1CN(C1CCC(=O)NC1=O)C2=O (stereo not drawn) [Lenalidomide] + Cc1cc(Nc2cc(N3CCN(C)CC3)nc(Sc3ccc(NC(=O)C4CC4)cc3)n2)n[nH]1 [Tozasertib] (partner 0.1 µM) come in under 0.7 for relative viability?
True

Confirm or reject: relative viability of Nc1cccc2c1CN(C1CCC(=O)NC1=O)C2=O (stereo not drawn) [Lenalidomide] + COc1cccc2cc(-c3nc([C@H]4CC[C@H](C(=O)O)CC4)n4ncnc(N)c34)[nH]c12 [OSI-027] (partner 0.5 µM) lies strictly below 0.7
True

Regarding Nc1cccc2c1CN(C1CCC(=O)NC1=O)C2=O (stereo not drawn) [Lenalidomide] + Cc1nc(NC(=O)N2CCC[C@H]2C(N)=O)sc1-c1ccnc(C(C)(C)C(F)(F)F)c1 [Alpelisib] (partner 2 µM) , kindly confirm whether its relative viability is beneath 0.7.
False

Given the entry Nc1cccc2c1CN(C1CCC(=O)NC1=O)C2=O (stereo not drawn) [Lenalidomide] + COc1cc2c(Oc3ccc(NC(=O)C4(C(=O)Nc5ccc(F)cc5)CC4)cc3F)ccnc2cc1OCCCN1CCOCC1 [Foretinib] (partner 0.25 µM) , would its reported relative viability be below 0.7?
False

I'd appreciate it if you could check whether Nc1cccc2c1CN(C1CCC(=O)NC1=O)C2=O (stereo not drawn) [Lenalidomide] + CC(=O)Nc1cccc(-n2c(=O)n(C3CC3)c(=O)c3c(Nc4ccc(I)cc4F)n(C)c(=O)c(C)c32)c1 [Trametinib] (partner 0.02 µM) has relative viability smaller than 0.7.
True
